Test system: P12-Ichikawa
MEASUREMENT NOTES: cell viability relative to DMSO control; higher = less cytotoxic
DETAILS: HPLM + 10% dialyzed FBS; 48 h; 0.19 µM
# cell viability values compiled below
Please state the figure in %; there is no need to write the unit.

Past entries and their recorded results:
CC[C@]1(O)C[C@H]2CN(CCC3=C([NH]C4=C3C=CC=C4)[C@@](C2)(C(=O)OC)C5=CC6=C(C=C5OC)N(C=O)[C@H]7[C@](O)([C@H](OC(C)=O)[C@]8(CC)\C=C/C[N@@]9CC[C@]67[C@H]89)C(=O)OC)C1 ... 17.7
CC(C)(C)OC(=O)CN(Cc1ccc(Cl)cc1)Cc1ccc([N+](=O)[O-])s1 ... 98.3
O=C(O)c1ccccc1C(=O)Nc1ccc(-c2ccccc2)cc1 ... 125
NC(=O)N1c2ccccc2CC(=O)c2ccccc21 ... 138
CC(C)OC(=O)CCC/C=C\C[C@@H]1[C@@H](/C=C/[C@@H](O)COc2cccc(C(F)(F)F)c2)[C@H](O)C[C@@H]1O ... 119
NC(=O)c1ccc(-c2nc(-c3ccc4c(c3)OCCO4)c(-c3ccccn3)[nH]2)cc1 ... 119

Kindly note the recorded cell viability for COc1cc2nccc(Oc3ccc(NC(=O)C4(C(=O)Nc5ccc(F)cc5)CC4)cc3)c2cc1OC , which is 111

Measured cell viability of CCCCN(CCCC)CCC(O)c1cc2c(Cl)cc(Cl)cc2c2cc(C(F)(F)F)ccc12 (stereo unspecified) : 131

----------
System: NOMO1
MEASUREMENT NOTES: cell viability relative to DMSO control; higher = less cytotoxic
DETAILS: HPLM + 10% dialyzed FBS; 48 h; 46.1 µM
The following compounds are listed with their measured cell viability values.
Write the value in % as a bare number.

Entry under test: COc1cc(N2CCC(C(N)=O)CC2)ccc1Nc1nc(N)c(Cl)c(Nc2ccccc2[S+](=O)([O-])C(C)C)n1 . Its cell viability was 2.93

# cell viability (compound: COC(=O)N1CCN(Cc2cccc(NC(=O)Nc3ccc(C)nc3)c2F)CC1 ) is 81.9

# cell viability of CCCCCCCCCCCC(CC1OC(=O)C1CCCCCC)OC(=O)C(CC(C)C)NC=O (centres undefined) = 13.7

Entry CN1CCCN(C(=O)c2cccc(-c3ccc(/C=C4/C(=O)Nc5ccc(Cl)cc54)o3)c2)CC1 — recorded cell viability = 66.1

----------
Measured cell viability, listed per entry for reference.
Test system: P12-Ichikawa
MEASUREMENT NOTES: cell viability relative to DMSO control; higher = less cytotoxic
DETAILS: HPLM + 10% dialyzed FBS; 48 h; 0.000781 µM
Report as a plain number; the unit % is understood.

These recorded examples may help you get a feel for the data.
C[N]1C=NC=C1[C@@](N)(C2=CC=C(Cl)C=C2)C3=CC=C4N(C)C(=O)\C=C(\C5=CC=CC(=C5)Cl)C4=C3 ... 111
O=C1NC(=O)[C@@H](c2cn3c4c(cccc24)CCC3)[C@@H]1c1c[nH]c2ccccc12 ... 99
O=C(Nc1ccc(OC(F)(F)F)cc1)c1sccc1NCc1ccnc2ccccc12 ... 112
COc1ccc(/C=C\c2cc(OC)c(OC)c(OC)c2)cc1O ... 21
COC1=CC=C2Nc3cc(Cl)ccc3C(N=C3C=C(CN4CCCC4)C(=O)C(CN4CCCC4)=C3)=C2N1 ... 116

Given the compound Cc1cc(O)c2c3c4c(cc(O)c13)C(C)(C)C(=O)c1c(O)cc(O)c(c1-4)C2=O and test system P12-Ichikawa, the measured cell viability is 104

Hey, P12-Ichikawa data for Cc1ccc(NC(=O)c2ccc(CN3CCN(C)CC3)cc2)cc1Nc1nccc(-c2cccnc2)n1 : cell viability came out at 93.8

cell viability on P12-Ichikawa for CN1C(=O)\C(=C/C(=C1/NC2=C(F)C=C(I)C=C2)C(=O)NOCCO)C is 94.6

----------
Entries and their measured cell viability follow.
Test system: SEM cells
MEASUREMENT NOTES: cell viability relative to DMSO control; higher = less cytotoxic
DETAILS: HPLM + 10% dialyzed FBS; 48 h; 0.000781 µM
Dear colleague, please send the value followed by its unit.

Lab book: cell viability of COC1=CC=C2Nc3cc(Cl)ccc3C(N=C3C=C(CN4CCCC4)C(=O)C(CN4CCCC4)=C3)=C2N1 noted as 90.6%

response.value for Cc1ccc(NC(=O)C2(c3ccc4c(c3)OC(F)(F)O4)CC2)nc1-c1cccc(C(=O)O)c1 (field: cell viability) = 106%

Note to self: cell viability recorded for C[C@H](NC(=O)C(=O)Nc1ccccc1C(C)(C)C)C(=O)N[C@@H](CC(=O)O)C(=O)COc1c(F)c(F)cc(F)c1F was 89.4%

Data point: NC(=O)c1ccc(-c2nc(-c3ccc4c(c3)OCCO4)c(-c3ccccn3)[nH]2)cc1 ; cell viability = 116%

# cell viability of Cl.c1cnc2cc3c(cc2n1)C1CNCC3C1 = 98.5%

The molecule identified as CSC1=CC(=CC=C1)NC2=NC3=C(C=N2)/C=C(C(=O)N3C)/C4=C(Cl)C=CC=C4Cl registered its cell viability at 86.5%

Memo: Cc1cc2c(C(C)C)c(O)c(O)c(C=O)c2c(O)c1-c1c(C)cc2c(C(C)C)c(O)c(O)c(C=O)c2c1O , reported cell viability: 107%

Looking up Cc1[nH]c(/C=C2\C(=O)Nc3ccc([S+](=O)([O-])N(C)c4cccc(Cl)c4)cc32)c(C)c1C(=O)N1CCN(C)CC1 , I found its cell viability recorded as 101%

----------
Tested on: NOMO1
MEASUREMENT NOTES: cell viability relative to DMSO control; higher = less cytotoxic
DETAILS: HPLM + 10% dialyzed FBS; 48 h; 5.12 µM
ATTRIBUTE MEASURED: cell viability (%)
Numeric only. Scale: %

Reference set (3 entries):
CNC(=O)c1cccc(-c2ccc3c(N4CCOC[C@@H]4C)nc(N4CCOC[C@@H]4C)nc3n2)c1 ... 60.1
COc1cc2c(Nc3ccc(NC(=O)c4ccccc4)cc3)ncnc2cc1OCCCN1CCOCC1 ... 103
Cc1ccc(NC(=O)c2ccc(CN3CCN(C)CC3)cc2)cc1Nc1nccc(-c2cccnc2)n1 ... 104

Next, consider the following molecule.
Please fill in: cell viability reported for Cc1ccc(-n2nc(C(C)(C)C)cc2NC(=O)Nc2ccc(OCCN3CCOCC3)c3ccccc23)cc1 = 120

----------
Test system: P12-Ichikawa
MEASUREMENT NOTES: cell viability relative to DMSO control; higher = less cytotoxic
DETAILS: RPMI 5 mM glucose + 10% dialyzed FBS; 48 h; 0.0211 µM
ATTRIBUTE MEASURED: cell viability (%)
Write down the numeric answer in % and omit the unit.

Below, 7 compounds whose answers are already recorded.
CCCCN(CCCC)CCC(O)c1cc2c(Cl)cc(Cl)cc2c2cc(C(F)(F)F)ccc12 (stereo not drawn) ... 117
Cc1c(C(=O)Nc2ccc(N3C[C@@H](C)O[C@@H](C)C3)nc2)cccc1-c1ccc(OC(F)(F)F)cc1 ... 131
O=C/1\C=C(/OC(=C1)/C2=C3SC4=C(SC3=CC=C2)C=CC=C4)N5CCOCC5 ... 23.7
CSC1=CC(=CC=C1)NC2=NC3=C(C=N2)/C=C(C(=O)N3C)/C4=C(Cl)C=CC=C4Cl ... 90.8
COC(=O)N1CCN(Cc2cccc(NC(=O)Nc3ccc(C)nc3)c2F)CC1 ... 93.7
COc1cc2ncnc(-n3nc(-c4ccccn4)nc3N)c2cc1OC ... 81.6
CC(=O)N1CCN(c2ccc(OCc3nn(C)c(C)c3-c3cccc4c(CCCOc5cc(C)c(Cl)c(C)c5)c(C(=O)O)n(Cc5cccnc5)c34)cc2)CC1 ... 122

Field: next compound
CNC(=O)[C@H](Cc1ccccc1)NC(=O)[C@H](CC(C)C)[C@H](CSc1cccs1)C(=O)NO has a reported cell viability of 88.3

----------
System: NOMO1
MEASUREMENT NOTES: cell viability relative to DMSO control; higher = less cytotoxic
DETAILS: RPMI 5 mM glucose + 10% FBS; 48 h; 0.0211 µM
Recorded cell viability by entry
Numbers only; they are read as %.

O=C1\C=C(/OC2=C1C=CC=C2C3=CC=CC=C3)N4CCOCC4 ... 84.7
O=C1NC(=O)[C@@H](c2cn3c4c(cccc24)CCC3)[C@@H]1c1c[nH]c2ccccc12 ... 99.5
Clc1cccc(-c2nnnn2Cc2cccnc2)c1Cl ... 84.1
Cc1ccc(-n2nc(C(C)(C)C)cc2NC(=O)Nc2ccc(OCCN3CCOCC3)c3ccccc23)cc1 ... 103
COc1nc(-c2ccc3c(c2)OCO3)n(-c2ccc(NC(=O)CSc3ccccc3)cc2)n1 ... 103
Cc1c[nH]c(/C=C2\C(=O)Nc3ccccc32)c1CCC(=O)O ... 122

So for CN(C)Cc1ccc(-c2nc3cccc4c3n2CCNC4=O)cc1 , the logged cell viability turned out to be 103

The value of cell viability measured for the molecule CCNC(=O)C[C@@H]1\N=C(C2=CC=C(Cl)C=C2)/C3=C(C=CC(=C3)OC)[N]4C(=NN=C14)C turned out to be 114

Short answer for OC[C@H]1O[C@@H](Oc2ccc(O)cc2)[C@H](O)[C@@H](O)[C@@H]1O : cell viability was 83.1

Entry Nc1nc(-c2nn(Cc3ccccc3F)c3ncccc23)nc(N)c1N1CCOCC1 , cell viability reported as 107

The molecule identified as NC1CCC(N[C@@H]2C[C@H]2c2ccccc2)CC1 (some centres undefined) registered its cell viability at 104
